Recorded values, source patent US10793509B2.

Below, each entry is listed alongside its reported EC50.
# Tested on: colon carcinoma cell line SW480
# Test summary: cells
# Type: cell-based
# Cond: Homo sapiens, SW480, 24 h, read-out: Viability assay EC50, SW480
// return numeric value only (unit: µM, not printed)

Examples from the recorded data:
Compound | System | Readout | Recorded number
O=C(Oc1ccc(CCl)cc1)c1ccccc1 [B12, 4-(chloromethyl)phenyl benzoate] | colon carcinoma cell line SW480 | EC50 | 130
O=C(Oc1ccc(CO[N+](=O)[O-])cc1)c1cccc2ccccc12 [B13, 4-((nitrooxy)methyl)phenyl 1-naphthoate] | colon carcinoma cell line SW480 | EC50 | 190

Let us examine a further case.
## Task EC50 for O=C(Oc1ccc(CO[N+](=O)[O-])cc1)c1ccccc1 [B9, 4-((nitrooxy)methyl)phenyl benzoate] ?
## Result 31.8
